Where these numbers come from: patent US20240269120A1

Provide the reported Cumulative GvHD score of each item.
tested on: NSG mice injected with human PBMCs (GvHD); experiment: Humanized GvHD mouse model, ex vivo pre-treated PBMCs plus in vivo treatment; conditions: sum of individual scores; label = ex vivo PBMC treatment/in vivo treatment; DMSO/Vehicle 7.8

I have this compound here, CC(C)(C)c1ccc(Oc2ccc(N)cn2)cc1 [DMSO/6-(4-tert-butylphenoxy)pyridin-3-amine] , and I need its recorded Cumulative GvHD score.
5.95

I have this compound here, N#CC[C@H](C1CCCC1)n1cc(-c2ncnc3[nH]ccc23)cn1 [DMSO/Ruxolitinib, Ruxolitinib, reference compound] , and I need its recorded Cumulative GvHD score.
6.9

I have this compound here, CC(C)(C)c1ccc(Oc2ccc(N)cn2)cc1 [6-(4-tert-butylphenoxy)pyridin-3-amine/6-(4-tert-butylphenox] , and I need its recorded Cumulative GvHD score.
5.2
